Experiment notes: small-molecule microarray binders of probe aDKK1, primary screen, biochemical, biotinylated probe, 635/667 nm fluorescence (AID 1099);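 note: score merges 667nm spot fluorescence with signal to noise across triplicate slides; reference of the scale not given here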
Assay setup: higher = more signal
Known composite z-score of a selection of molecules
Write the number on its own, no unit after it.

// known answers, use as guide
{"columns": ["Molecule", "Obs value"],
 "data": [
  ["COCCOC(=O)N1C(=O)[C@@]2(c3ccccc31)[C@H](c1ccccc1OCCO)N1[C@H](c3ccccc3)[C@H](c3ccccc3)OC(=O)[C@H]1[C@@H]2C(=O)Nc1nc2ccccc2s1", 0.262],
  ["CC[C@@H]1C=C(C(=O)O)[C@H](c2ccco2)N1S(=O)(=O)c1ccc(C)cc1", -0.0292],
  ["C=CC[C@]1(C(=O)N2CCCCC2)N=C(c2ccc(OCCCO)cc2)O[C@H]1c1ccccc1", 1.16],
  ["CCCC[C@H]1OB(O)C[C@H]2C1=C(COc1ccccc1)C[C@H]1C(=O)N(C)C(=O)[C@H]12", 0.0763],
  ["O=C1NC(=O)C2C1C=CC(C(O)C(c1ccccc1)c1ccccc1)N2Nc1ccc(Cl)cc1Cl (stereo not given)", 0.824]
]}

Incoming: Suppose we examine the molecule `COC(=O)C(CC#Cc1ccc2c(c1)[C@]1(C(=O)N2)[C@H](c2ccc(O)cc2)N2[C@H](c3ccccc3)[C@H](c3ccccc3)OC(=O)[C@H]2[C@@H]1C(=O)Nc1nc2ccccc2s1)C(=O)OC` ; what composite z-score value has been reported?
Outgoing: -0.0329

Incoming: Need composite z-score, item CC1CC/C=C\[C@H]2OC34C=CCN(Cn5nnc6ccccc65)C(=O)[C@H]3N(C(CO)C(C)C)C(=O)[C@@H]4C2C(=O)O1 (stereo not given in full)
Outgoing: -0.165

Incoming: Requested read-out: composite z-score. Entry: `C=C(CCCC)C(=O)CC[C@H](OC(C)=O)c1cccc(OCCO)c1`
Outgoing: -0.409

====

Experiment notes: small-molecule microarray binders of probe aShh, primary screen, biochemical, biotinylated probe, 635/667 nm fluorescence (AID 1114);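 note: probe is biotin-labelled aShh protein from a stem cell growth factor screen; measures binding of labelled protein to compounds printed on the slide; score merges feature fluorescence at 667 nm with signal-to-noise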
Assay setup: higher = more signal
Quantity name: composite z-score
// return a plain number; no unit text

Worked set:
{"columns": ["Compound", "composite z-score"],
 "data": [
  ["COc1ccc(C(O)C2C=CC3C(=O)NC(=O)C3N2Nc2ccccn2)c2ccccc12 (stereo not given)", 0.147],
  ["CN(C)CCCNC(=O)[C@@]1(C)c2ccccc2C(=O)N(Cc2cc(F)cc(C(F)(F)F)c2)[C@H]1c1ccc(CO)cc1", 0.0121],
  ["COc1ccc([Si](C)(C)[C@@H]2[C@@H](CC(=O)N3Cc4ccccc4C[C@H]3CO)O[C@]3(C(=O)N(C)c4c(Br)cc(C)cc43)[C@H]2C)cc1", -0.0793],
  ["CN(C)C(=O)[C@@]1(Cc2ccccc2CN=[N+]=[N-])N=C(c2ccc(OCCCO)cc2)O[C@H]1c1ccccc1", -0.0243],
  ["CC(C)C(CO)N1C(=O)[C@@H]2[C@H]3C(=O)OCC=C[C@H]3OC23C=CCN(C(C)C)C(=O)[C@@H]13 (stereo not given in full)", -0.223],
  ["COCC(=C=CC[C@@H](O)c1ccccc1OCCO)C[C@@H](O)c1cc(Cl)cc(Cl)c1O", -0.14],
  ["C=CCNC(=O)[C@@H]1[C@H]2C(=O)O[C@H](c3ccccc3)[C@H](c3ccccc3)N2[C@H](c2ccccc2OCCO)[C@@]12C(=O)N(C(=O)OCCOC)c1ccc(C#CCNC(N)=O)cc12", -0.739],
  ["COc1ccc(CCN2C(=O)[C@@]3(Cc4ccccc42)c2ccccc2C(=O)N(Cc2ccccc2C(F)(F)F)[C@H]3c2ccc(CO)cc2)cc1", 0.0796],
  ["CCCC[C@@H]1C[C@H]1[C@@H](NC(=O)c1ccco1)c1ccc(C(=O)OC)cc1", -0.217],
  ["COc1ccc(CCNC(=O)[C@@]2(C)c3ccccc3C(=O)N(Cc3cc(F)cc(C(F)(F)F)c3)[C@H]2c2ccc(CO)cc2)cc1", -0.0849]
]}

Let us move to another entry and its composite z-score.
Incoming: Data request, read-out composite z-score, for `O=C1O[C@H](c2ccccc2)[C@H](c2ccccc2)N2[C@H]1[C@@H](C(=O)N1CCN(c3ncccn3)CC1)[C@]1(C(=O)Nc3ccc(C#CC4=CCCCC4)cc31)[C@H]2c1ccc(O)cc1`
Outgoing: -0.221
